Target: Gonadotropin-releasing hormone receptor (Homo sapiens)
Sequence (P30968 whole entry): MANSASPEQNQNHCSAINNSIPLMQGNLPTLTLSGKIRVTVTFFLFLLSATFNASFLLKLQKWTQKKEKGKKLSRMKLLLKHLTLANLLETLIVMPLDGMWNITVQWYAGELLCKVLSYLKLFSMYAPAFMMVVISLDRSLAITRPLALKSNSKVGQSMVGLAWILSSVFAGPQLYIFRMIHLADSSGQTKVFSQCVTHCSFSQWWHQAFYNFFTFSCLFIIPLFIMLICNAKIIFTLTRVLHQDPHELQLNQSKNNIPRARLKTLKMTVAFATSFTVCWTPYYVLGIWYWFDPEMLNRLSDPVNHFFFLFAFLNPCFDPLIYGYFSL
Test: Displacement of [125I]His5,D-Tyr6]GnRH from human cloned GnRH receptor transfected in COS7 cells
pKi: −log10 of the molar value.
Assign class by pKi: not lower than 7 means Criterion met; lower than 7 means Criterion not met.

Below are worked cases with known answers.
Compound: Cc1ccc(CN2CCc3c(c(=O)n(CCN(C)CCc4ccccn4)c(=O)n3Cc3c(F)cccc3F)C2)c(C)c1
Category label: Criterion met
--
Compound: COc1cccc(-n2c(=O)c3c(n(Cc4c(F)cccc4F)c2=O)CN(Cc2ccc(C)cc2)CC3)c1
Category label: Criterion not met
--
Compound: COc1cccc(-n2c(=O)c3c(n(Cc4c(F)cccc4F)c2=O)CN(CCc2c[nH]c4ccccc24)CC3)c1
Category label: Criterion not met
--
Compound: Cc1cc(Cl)ccc1CN1CCc2c(c(=O)n(CCN(C)CCc3ccccn3)c(=O)n2Cc2c(F)cccc2F)C1
Category label: Criterion met
--
Compound: O=c1c2c(n(Cc3c(F)cccc3F)c(=O)n1C[C@H]1CCCN1CCc1ccccn1)CCN(Cc1ccc(Cl)cc1)C2
Category label: Criterion met

I'd appreciate it if you could say whether "CN(CCc1ccccn1)CCn1c(=O)c2c(n(Cc3c(F)cccc3F)c1=O)CCN(Cc1nc3ccccc3n1C)C2" has pKi at least equal to 7.
Criterion not met

Exam item: decide whether the reported pKi for Cc1ccc(CN2CCc3c(c(=O)n(CC4CCCCN4Cc4ccccc4)c(=O)n3Cc3c(F)cccc3F)C2)c(C)c1 (centres undefined) is at least 7.
Criterion not met

Test whether the compound Cc1ccc(CN2CCc3c(c(=O)n(CC4CCCCN4C)c(=O)n3Cc3c(F)cccc3F)C2)c(C)c1 (centres undefined) records pKi of 7 or higher.
Criterion not met

Could you please find out whether "CN(CCc1ccccn1)CCn1c(=O)c2c(n(Cc3c(F)cccc3F)c1=O)CCN(Cc1ccc(Cl)c(Cl)c1)C2" has pKi that meets 7 or exceeds it?
Criterion not met

----------
Target: UniProt P30968
Test: Displacement of [125I]His5,D-Tyr6]GnRH from human cloned GnRH receptor transfected in COS7 cells
Ki less than 500 nM is rule met; Ki greater than or equal to 500 nM is rule not met.

Molecule: Cc1c(CN2CCc3c(c(=O)n(CCN(C)CCc4ccccn4)c(=O)n3Cc3ccccc3)C2)sc2ccccc12
Category label: rule met

Quick check: Ki of "CN(CCc1ccccn1)CCn1c(=O)c2c(n(Cc3c(F)cccc3F)c1=O)CCN(Cc1ccncc1)C2" under 500 nM?
rule not met

Dear colleague, could you confirm whether Ki of Cc1ccc(CN2CCc3c(c(=O)n(CC4CCCN(CCc5ccccn5)C4)c(=O)n3Cc3c(F)cccc3F)C2)c(C)c1 (stereo not drawn) falls below 500 nM? Thanks.
rule not met

Decide: Ki of "Cc1c(CN2CCc3[nH]c(=O)n(CCN(C)CCc4ccccn4)c(=O)c3C2)sc2ccccc12" strictly below 500 nM?
rule not met

Consider Cc1ccc(CN2CCc3c(c(=O)n(CC4CCCCN4)c(=O)n3Cc3c(F)cccc3F)C2)c(C)c1 (stereo not drawn) . Does its Ki lie strictly below 500 nM?
rule not met

A record lists "O=c1c2c(n(Cc3c(F)cccc3F)c(=O)n1C[C@H]1CCCN1C1CCCC1)CCN(Cc1ccc(Cl)cc1)C2" . Is its Ki below 500 nM?
rule not met

For "CN(C)[C@@H](Cn1c(=O)c2c(n(Cc3c(F)cccc3F)c1=O)CCN(Cc1ccc(Cl)cc1)C2)c1ccccc1" , is the recorded Ki below the cut-off of 500 nM?
rule met
